# Test system: NCI/ADR-RES ovarian
# protocol.details: NCI-60 one-dose screen, 48 h
# condition.context: 10 µM unless noted
The panel holds about 83,000 compounds, 20% with a hit somewhere; the sample as a whole holds those more often. Activity calls are given as the source filed them. The calls were made as follows: active = growth percent below 10; inactive = the rest.
Outcome (select one): active, inactive

Example results:
{"columns": ["molecule", "class"],
 "data": [
  ["S=C1CC(=S)NC(=S)N1", "inactive"],
  ["Cc1cc(N/N=C/c2nc(-c3ccccc3)oc2C)c2cc(Br)ccc2n1", "inactive"],
  ["O=C(Nc1cccc(-n2cc(-c3ccncc3)c(-c3ccc(Cl)c(O)c3)n2)c1)c1ccccc1", "inactive"],
  ["COc1ccc(C(=O)c2cc(OC)c3c(c2)OCO3)cc1O", "active"],
  ["N=C(N)c1ccc(-c2cc(Cl)cc(Cl)c2)cn1", "inactive"],
  ["COc1ccc(OC)c(C2OC(c3ccc4ccccc4c3O)=NN2C(C)=O)c1 (stereo unspecified)", "inactive"],
  ["COc1ccc(Cn2cc3c(c2-c2cc(OC)c(OC)c(OC)c2)CCc2cnoc2-3)cc1", "inactive"],
  ["C=C1C(=O)O[C@H]2[C@H]1CC/C(Cn1cc(CNC(=O)Cc3cn(C(=O)c4ccc(Cl)cc4)c4ccc(OC)cc34)nn1)=C\\CC[C@@]1(C)O[C@@H]21", "inactive"],
  ["Clc1cc2c(nn1)Nc1ccccc1S2", "inactive"],
  ["O=C(O)COc1ccc(-c2cssc2=S)cc1", "inactive"]
]}

Query: Lab log entry: COC(=O)[C@]12CC[C@@H](C)[C@H](C)[C@@H]1C1=CC[C@@H]3[C@@]4(C)C(C=O)=C[C@@](C)(COC(=O)c5ccco5)[C@@H]4[C@H](O)C[C@@]3(C)[C@]1(C)CC2 — outcome as called in the assay?
Result: active

Query: Lab log entry: Oc1ccc(Cl)cc1-c1cc(-c2ccc(F)cc2)n[nH]1 — outcome as called in the assay?
Result: inactive

Query: Lab log entry: COc1cc(Cn2cc3c(c2)-c2oncc2CC3)cc(OC)c1OC — outcome as called in the assay?
Result: active

----------
# Test system: SF-268 CNS
# protocol.details: NCI-60 one-dose screen, 48 h
# condition.context: 10 µM unless noted
About 83,000 compounds went through this panel and 20% of them were active in at least one assay; those are over-represented in the sample as a whole. Active and inactive are the calls of the source. Rule for the calls: active = growth percent below 10; inactive = the rest.
Outcome (select one): T = active, F = inactive

Example results:
{"columns": ["compound", "class"],
 "data": [
  ["Cc1c(C(=O)/C=C/c2csc3ccccc23)[n+](=O)c2ccccc2n1[O-]", "F"],
  ["COc1ccc(-c2nc(SCCC(C)C)nc(Nc3ccc(F)c(Cl)c3)c2C#N)cc1", "F"],
  ["Cc1ccc(S(=O)(=O)Nc2c(Br)cc(Br)cc2C(N)=O)cc1", "F"]
]}

Query: Lab log entry: Cc1ccc(S(=O)(=O)c2nc(-c3ccccc3)oc2S(C)(=O)=O)cc1 — outcome as called in the assay?
Result: F

Query: Lab log entry: COc1ccc2c(c1)OC1=C(C(=O)OC1)C2c1cc(OC)c2c(c1)OCO2 (configuration not stated) — outcome as called in the assay?
Result: F

Query: Lab log entry: O=C(O)c1nc(-c2ccccc2)oc1N1CCOCC1 — outcome as called in the assay?
Result: F

Query: Lab log entry: O=C(Nc1cccc(-n2cc(-c3ccncc3)c(-c3ccc(Cl)c(O)c3)n2)c1)Nc1ccc(Cl)c(C(F)(F)F)c1 — outcome as called in the assay?
Result: T

Query: Lab log entry: O=c1[nH]c(Nc2ccc(S(=O)(=O)O)cc2)nc2nc(Nc3ccc(NC(=S)Nc4ccccc4)cc3)nc(-c3ccc(O)cc3O)c12 — outcome as called in the assay?
Result: F
